Where these numbers come from: ChEMBL document CHEMBL2028040

tested on: Leishmania infantum; assay: MMV: Inhibition of Leishmania infantum (MHOM/MA/BE/67) in vitro.; assay type: functional, organism-based
IC50 vs 6 µM: less than gives criterion met; not less than gives criterion not met.

**Query** Bench note: check whether O=[N+]([O-])c1ccc(C=NNc2nc3ccccc3[nH]2)cc1 shows IC50 below 6 µM
**Result** criterion not met

**Query** Just wondering, is IC50 of CN(C)CCNc1cc(-c2ccccc2)nc2ccccc12 below 6 µM?
**Result** criterion not met

**Query** Please let me know if COc1cc(-c2nc(-c3ccccc3)c(-c3ccccc3)[nH]2)cc(OC)c1O shows IC50 below 6 µM.
**Result** criterion not met

**Query** Is IC50 strictly under 6 µM for the entry CCOc1ccc(Nc2c3ccccc3nc3ccccc23)cc1 ?
**Result** criterion met

**Query** Please indicate whether the reported IC50 of CCOc1c(Cl)cc(CNCC(O)c2ccccc2)cc1OC (stereo unspecified) is strictly below 6 µM.
**Result** criterion not met

**Query** # TODO verify IC50 < 6 µM strictly for this molecule: O=c1cc(NC2CCN(CCCc3ccccc3)CC2)c2cc(Cl)ccc2o1
**Result** criterion not met

**Query** Confirm or reject: IC50 of COc1cccc(C(=O)Nc2ccc(-c3nc4ccccc4[nH]3)cc2)c1 lies strictly below 6 µM
**Result** criterion not met

**Query** For this molecule, is IC50 lower than 6 µM? O=C(NC1CCCC1)c1ccc(N2CCC(NCc3cccc(C(F)(F)F)c3)CC2)cc1
**Result** criterion not met

**Query** Quick check: IC50 of OC(CNCC1CCCO1)Cn1c2ccc(Cl)cc2c2cc(Cl)ccc21 (stereo unspecified) under 6 µM?
**Result** criterion not met

**Query** # check: IC50 < 6 µM for CCCc1c(CC)c(=N)c2ccccc2n1C
**Result** criterion not met

**Query** Hello, is IC50 of the following molecule strictly smaller than 6 µM? COc1ccc(C(=O)C(CCC(CNC(C)(C)C)C(=O)c2ccc(OC)cc2)CNC(C)(C)C)cc1 (stereo unspecified)
**Result** criterion met
